Entry source: patent US20050137215A1

Counter-ions that a name gives are not always drawn.
melting point values, listed per item

Check out these entries, answers already filled in.
> print(dat)
                                   molecule                result
1  O=C(O)C1NCC2C1CCC2(F)F (stereo not shown)  200 to 205 °C (dec.)
2  COC1CC2CNC(C(=O)O)C2CC1OC (stereo not shown)  235 to 241 °C (dec.)
3  O=C(O)[C@@]12CCCN1C[C@H]1CCCC[C@H]12 (racemic) (as salt: hydrochloride)         250 to 255 °C

// moving on: another record for melting point
## Task Return reported melting point; argument: O=C(O)[C@@H]1NC[C@@H]2[C@H]1[C@H]1CC[C@@H]2O1 (racemic)
## Result 188 to 190 °C

---

- experimental-system: alpha-2-delta receptor 1 (Sus scrofa, UniProt A0A287BIN3)
- assay-summary: [3H]Gabapentin A2DR1 binding assay
- setup-conditions: Biological Method 4; read-out: A2DR1 IC50, displacement of [3H]-gabapentin
quantity-kind: IC50

Check out these entries, answers already filled in.
> print(dat)
                                   molecule   result
1         C[C@]1(C(=O)O)NC[C@H]2CCCC[C@H]21  ≥ 10 µM
2  CC1(C)N[C@H](C(=O)O)[C@@H]2CCCC[C@H]21 (racemic)  ≥ 10 µM

## Task Return reported IC50; argument: O=C(O)[C@@]12CCCN1C[C@H]1CCCC[C@H]12
## Result ≥ 10 µM

---

- experimental-system: alpha-2-delta receptor 2 (UniProt A0A8W4FF87)
- assay-summary: [3H]Gabapentin A2DR2 binding assay
- setup-conditions: Biological Method 4; read-out: A2DR2 IC50, displacement of [3H]-gabapentin
pIC50: −log10 of the molar value.
quantity-kind: pIC50

## Task Return reported pIC50; argument: C[C@]1(C(=O)O)NC[C@H]2CCCC[C@H]21
## Result ≤ 5.00

## Task Another compound: CC1(C)N[C@H](C(=O)O)[C@@H]2CCCC[C@H]21 (racemic)
## Result ≤ 5.00
